- system tested: thrombin (Homo sapiens, UniProt P00734)
- method description: Determination of the thrombin-inhibitory activity in plasma samples (ecarin-activated)
- Assay type: biochemical
- experimental conditions: citrate plasma, ecarin activation, fluorogenic thrombin substrate; in some cases means of individual determinations
readout label: pIC50
Conceptually, pIC50 converts a concentration in mol/L into minus its log10.

Assign pIC50 to the following record: CCO[C@@H]1CC(CO)N(C(=O)c2cc(OC)c3oc(NC(C)c4cc(Cl)ccn4)nc3c2)C1 (some centres unmarked) 7.18

Assign pIC50 to the following record: COc1cc(C(=O)N2CC3CCN3C(=O)C2C)cc2nc(NCc3cc(Cl)ccn3)oc12 (single isomer, unassigned) 7.32

Assign pIC50 to the following record: COc1cc(C(=O)N2CCOC(C)(CC(C)O)C2)cc2nc(NCc3cc(Cl)ccn3)oc12 (single isomer, unassigned) 7.00

Assign pIC50 to the following record: COc1cc(C(=O)N2CC(C)OCC2C(C)(C)O)cc2nc(NCc3cc(Cl)ccn3)oc12 (single isomer, unassigned) [Example 37] 7.36

Assign pIC50 to the following record: CCC1C(=O)NC2(CC2)CN1C(=O)c1cc(OC)c2oc(NCc3cc(Cl)ccn3)nc2c1 (single isomer, unassigned) [Example 79] 7.85

Assign pIC50 to the following record: CCO[C@@H]1CC(CO)N(C(=O)c2cc(OC)c3oc(NCc4cc(Cl)ccn4)nc3c2)C1 (single isomer, unassigned) [Example 2] 7.72

Assign pIC50 to the following record: COc1cc(C(=O)N2CC(C)(CC(C)O)OCC2CF)cc2nc(NCc3cc(Cl)ccn3)oc12 (racemic) [Example 22] 7.96

Assign pIC50 to the following record: COc1cc(C(=O)N2CC(C)(C)OCC2(C)C(C)O)cc2nc(NCc3cc(Cl)ccn3)oc12 (centres unmarked) 7.57

Assign pIC50 to the following record: CC[C@@H]1COC(C)(CCO)CN1C(=O)c1cc(OC)c2oc(NCc3cc(Cl)ccn3)nc2c1 (some centres unmarked) [Example 28] 7.77

Assign pIC50 to the following record: COc1cc(C(=O)N2CC(C)(C)NC(=O)C2CC#N)cc2nc(NCc3cc(Cl)ccn3)oc12 (racemic) [Example 83] 7.21

Assign pIC50 to the following record: COc1cc(C(=O)N2CC(C)(CC(C)O)OC[C@H]2C)cc2nc(NC(C)c3cc(Cl)ccn3)oc12 (single isomer, unassigned) [Example 27] 8.12

Assign pIC50 to the following record: COc1cc(C(=O)N2CC(C)(C)OC[C@H]2CCO)cc2nc(NC(C)c3cc(Cl)ccn3)oc12 (some centres unmarked) 7.05

Assign pIC50 to the following record: COc1cc(C(=O)N2CC(C)(CCO)OCC2COC(F)F)cc2nc(NCc3cc(Cl)ccn3)oc12 (single isomer, unassigned) 7.62

Assign pIC50 to the following record: COCC1COC(C)(C)CN1C(=O)c1cc(OC)c2oc(NCc3cc(Cl)ccn3)nc2c1 (racemic) 7.30

====

- system tested: thrombin (Homo sapiens, UniProt P00734)
- method description: Determination of the thrombin-inhibitory activity in plasma samples (ecarin-activated)
- Type: biochemical
- experimental conditions: citrate plasma, ecarin activation, fluorogenic thrombin substrate; in some cases means of individual determinations
Checkbox rule: IC50 lower than 0.04 µM = condition met; IC50 not lower than 0.04 µM = condition not met.

Quick check: does COc1cc(C(=O)N2CCCC2(C)C(=O)N2CC(F)C2)cc2nc(NCc3cc(Cl)ccn3)oc12 (single isomer, unassigned) [Example 17] have IC50 under 0.04 µM? condition not met

Quick check: does COc1cc(C(=O)N2C[C@H](OCC(F)F)CC2CO)cc2nc(NCc3cc(Cl)ccn3)oc12 (single isomer, unassigned) [Example 7] have IC50 under 0.04 µM? condition not met

Quick check: does COc1cc(C(=O)N2CC(C)(C)OCC2C2(O)CC2)cc2nc(NCc3cc(Cl)ccn3)oc12 (single isomer, unassigned) [Example 94] have IC50 under 0.04 µM? condition met

Quick check: does COc1cc(C(=O)N2CC(C)(CCO)OCC2(C)C)cc2nc(NCc3cc(Cl)ccn3)oc12 (racemic) [Example 32] have IC50 under 0.04 µM? condition met

Quick check: does COc1cc(C(=O)N2CC3(CC3)NC(=O)C2C)cc2nc(NCc3cc(Cl)ccn3)oc12 (single isomer, unassigned) [Example 77] have IC50 under 0.04 µM? condition met

Quick check: does COc1cc(C(=O)N2CC(C)(C)OCC2C(C)O)cc2nc(NCc3cc(Cl)ccn3)oc12 (single isomer, unassigned) [Example 96] have IC50 under 0.04 µM? condition not met

Quick check: does COc1cc(C(=O)N2CC(C)OC[C@@H]2[C@@H](C)O)cc2nc(NCc3cc(Cl)ccn3)oc12 (stereo partly drawn) [Example 68] have IC50 under 0.04 µM? condition not met

Quick check: does COc1cc(C(=O)N2CC(C)(C)OCC2CF)cc2nc(NCc3cc(Cl)ccn3)oc12 (single isomer, unassigned) [Example 43] have IC50 under 0.04 µM? condition met

Quick check: does COCC1C(=O)N2CCC2CN1C(=O)c1cc(OC)c2oc(NCc3cc(Cl)ccn3)nc2c1 (single isomer, unassigned) [Example 74] have IC50 under 0.04 µM? condition not met

Quick check: does CCC1C(=O)N2CCC2CN1C(=O)c1cc(OC)c2oc(NCc3cc(Cl)ccn3)nc2c1 (stereo not drawn) [Example 73] have IC50 under 0.04 µM? condition not met

Quick check: does COc1cc(C(=O)N2CCCC2(C)C(=O)N2CCOCC2)cc2nc(NCc3cc(Cl)ccn3)oc12 (single isomer, unassigned) [Example 18] have IC50 under 0.04 µM? condition met

Quick check: does COc1cc(C(=O)N2CC(C)OCC2(C)CO)cc2nc(NCc3cc(Cl)ccn3)oc12 (single isomer, unassigned) [Example 19] have IC50 under 0.04 µM? condition not met

Quick check: does COc1cc(C(=O)N2CC3(CC3)NC(=O)C2C)cc2nc(NCc3cc(Cl)ccn3)oc12 (racemic) [Example 76] have IC50 under 0.04 µM? condition met

Quick check: does COc1cc(C(=O)N2CC(C)OCC2C2CC(O)C2)cc2nc(NCc3cc(Cl)ccn3)oc12 (single isomer, unassigned) [Example 51] have IC50 under 0.04 µM? condition met

Quick check: does COc1cc(C(=O)N2CC(C)OCC2CCO)cc2nc(NCc3cc(Cl)ccn3)oc12 (single isomer, unassigned) [Example 72] have IC50 under 0.04 µM? condition met

Quick check: does COc1cc(C(=O)N2CC(C)(CC(C)O)OCC2CF)cc2nc(NCc3cc(Cl)ccn3)oc12 (single isomer, unassigned) [Example 23] have IC50 under 0.04 µM? condition met

Quick check: does COc1cc(C(=O)N2CC(C)(CC(C)O)OCC2(C)C)cc2nc(NCc3cc(Cl)ccn3)oc12 (single isomer, unassigned) [Example 35] have IC50 under 0.04 µM? condition not met
